Tested on: Pseudomonas aeruginosa ATCC 27853
TEST_DETAILS: MIC and MBC measurement
Type: cell-based
TEST_PARAMETERS: ATCC27853, Table 10, Pseudomonas aeruginosa ATCC 27853
Overview of reported MBC across a group of molecules:

In the examples that follow, each entry is paired with its recorded MBC.
STRUCTURE_AS_SMILES	MBC
C[C@H](CCCN(C)Cc1ccccc1)[C@H]1CC[C@H]2[C@@H]3[C@H](OCCCN)C[C@@H]4C[C@H](OCCCN)CC[C@]4(C)[C@H]3C[C@H](OCCCN)[C@]12C	> 17 µg/mL
C[C@H](CCCN(C)Cc1ccccc1)[C@H]1CC[C@H]2[C@@H]3[C@H](OCCN)C[C@@H]4C[C@H](OCCN)CC[C@]4(C)[C@H]3C[C@H](OCCN)[C@]12C	38 µg/mL

-- ask I'm curious: which MBC was measured for C[C@H](CCCN(C)Cc1ccccc1)[C@H]1CC[C@H]2[C@@H]3[C@H](OCCCNC(=N)N)C[C@@H]4C[C@H](OCCCNC(=N)N)CC[C@]4(C)[C@H]3C[C@H](OCCCNC(=N)N)[C@]12C tested on Pseudomonas aeruginosa ATCC 27853?
-- reply 9.9 µg/mL

----------
System: Escherichia coli ATCC 25922
TEST_DETAILS: MIC and MBC measurement
Format: cell-based
TEST_PARAMETERS: Escherichia coli, ATCC25922, Table 10; Escherichia coli ATCC 25922; read-out: MIC
TEST_READOUT: MIC (µg/mL)
Just the number in µg/mL, nothing appended.

STRUCTURE_AS_SMILES	MIC, µg/mL
C[C@]12CC[C@@H](OCCCN)C[C@H]1C[C@@H](OCCCN)[C@@H]1[C@@H]2C[C@H](OCCCN)[C@]2(C)[C@@H](O)CC[C@@H]12	80
CCCOCCC[C@@H](C)[C@H]1CC[C@H]2[C@@H]3[C@H](OCCCN)C[C@@H]4C[C@H](OCCCN)CC[C@]4(C)[C@H]3C[C@H](OCCCN)[C@]12C	6.6
C[C@H](CCCN(C)Cc1ccccc1)[C@H]1CC[C@H]2[C@@H]3[C@H](OCCCN)C[C@@H]4C[C@H](OCCCN)CC[C@]4(C)[C@H]3C[C@H](OCCCN)[C@]12C	5.1

-- ask Sample C[C@H](CCCO)[C@H]1CC[C@H]2[C@@H]3[C@H](OCCCN)C[C@@H]4C[C@H](OCCCN)CC[C@]4(C)[C@H]3C[C@H](OCCCN)[C@]12C — what was its MIC?
-- reply 36

-- ask // next record C[C@H](CCCN(C)Cc1ccccc1)[C@H]1CC[C@H]2[C@@H]3[C@H](OCCN)C[C@@H]4C[C@H](OCCN)CC[C@]4(C)[C@H]3C[C@H](OCCN)[C@]12C
-- reply 22

-- ask // next record C[C@H](CCCN(C)Cc1ccccc1)[C@H]1CC[C@H]2[C@@H]3[C@H](OCCCNC(=N)N)C[C@@H]4C[C@H](OCCCNC(=N)N)CC[C@]4(C)[C@H]3C[C@H](OCCCNC(=N)N)[C@]12C
-- reply 1.4

----------
TEST_DETAILS: Minimum hemolytic concentration (MHC)
Format: cell-based
TEST_PARAMETERS: Table 10
Description: Minimum inhibition concentrations (MIC) and minimum hemolytic concentrations (MHC) were measured as described in Li et al., Antimicrob. Agents. Chemother., 1999, 43, 1347. […]
Overview of reported MHC across a group of compounds:
Just the number in µg/mL, nothing appended.

COMPOUND	MHC [µg/mL]
C[C@H](CCCN(C)Cc1ccccc1)[C@H]1CC[C@H]2[C@@H]3[C@H](OCCCN)C[C@@H]4C[C@H](OCCCN)CC[C@]4(C)[C@H]3C[C@H](OCCCN)[C@]12C [Compound 2]	58
C[C@H](CCCO)[C@H]1CC[C@H]2[C@@H]3[C@H](OCCCN)C[C@@H]4C[C@H](OCCCN)CC[C@]4(C)[C@H]3C[C@H](OCCCN)[C@]12C [Compound 10]	100

Moving on to the next compound.
-- ask Sample C[C@H](CCCN(C)Cc1ccccc1)[C@H]1CC[C@H]2[C@@H]3[C@H](OCCCNC(=N)N)C[C@@H]4C[C@H](OCCCNC(=N)N)CC[C@]4(C)[C@H]3C[C@H](OCCCNC(=N)N)[C@]12C [Compound 5] — what was its MHC?
-- reply 26
